- Tested on: GST-Bcl-2
- Assay Text: TR-FRET binding assay, Bcl-2
- Study Conditions: TR-FRET Ki values
Readout Label: Binding selectivity ratio (Bcl-XL Ki/Bcl-2 Ki)

Molecule	Reported
CC1(C)CCC(CN2CCN(c3ccc(C(=O)NS(=O)(=O)c4ccc(NCCCN5CCCC5)c([N+](=O)[O-])c4)c(Oc4cccc5[nH]ccc45)c3)CC2)=C(c2ccc(F)cc2)C1 [Example 73]	9.9
CN1CCN(CCCNc2ccc(S(=O)(=O)NC(=O)c3ccc(N4CCN(Cc5ccccc5-c5ccc(Cl)cc5)CC4)cc3Oc3ccccc3)cc2[N+](=O)[O-])CC1 [Example 86]	49.6
CN(C)CCCNc1ccc(S(=O)(=O)NC(=O)c2ccc(N3CCN(Cc4ccccc4-c4ccc(Cl)cc4)CC3)cc2Oc2ccc3cc[nH]c3c2)cc1[N+](=O)[O-] [Example 47]	15.7
